System: HEK-293T
Test: Multiplex assay against HEK293T
Assay type: toxicity, cell-based
Details: human, 48 h, 10 µM, compound concentration 10 uM, replicate 2
Class 1: Total Cell Count at least 600. Class -1: Total Cell Count below 600.

[
  {
    "compound": "NCCc1cn(S(=O)(=O)c2c(Cl)nc3sccn23)c2ccccc12.O=C(O)C(=O)O",
    "class-name": -1
  },
  {
    "compound": "N#Cc1c(Oc2cccc(OS(=O)(=O)CCCC(F)(F)F)c2)cccc1C(F)(F)F",
    "class-name": -1
  },
  {
    "compound": "CC(=O)Nc1cccc2c1c(Sc1ccc(Cl)cc1)c(C)n2CC(=O)O [AZD1981]",
    "class-name": -1
  },
  {
    "compound": "COC[C@@H](c1ccc(C(F)(F)F)cc1)N1CCN(C2(C)CCN(C(=O)c3c(C)ncnc3C)CC2)C[C@@H]1C.O=C(O)/C=C\\C(=O)O [VICRIVIROC MALEATE]",
    "class-name": -1
  },
  {
    "compound": "Cc1cnc(-c2cc(N3CCN(C(=O)CCS(C)(=O)=O)CC3)ncc2Cl)c(C)c1",
    "class-name": -1
  },
  {
    "compound": "CCCOc1ccc2[nH]cc(C3=CCNCC3)c2n1.Cl",
    "class-name": 1
  }
]

###

System: HEK-293T
Test: Multiplex assay against HEK293T
Type: toxicity, cell-based
Settings: human, 12 h, 1 µM, compound concentration 1 uM, replicate 1
Class Met: Population Hoechst High Intensity Objects (%) at least 6%. Class Not met: Population Hoechst High Intensity Objects (%) below 6%.

[
  {
    "molecule": "CN[C@@H](C)C(=O)N[C@H](C(=O)N1CCC[C@H]1C(=O)Nc1snnc1-c1ccccc1)C1CCCCC1 [GDC-0152]",
    "target-of-assay": "HEK-293T",
    "class-name": "Not met"
  },
  {
    "molecule": "O=C(NCCN1CCC(n2c(=O)[nH]c3cc(Cl)ccc32)CC1)c1ccc(F)cc1 [HALOPEMIDE]",
    "target-of-assay": "HEK-293T",
    "class-name": "Met"
  },
  {
    "molecule": "Br.CS(=O)(=O)Nc1c(O)ccc2c1CCCC2C1=NCCN1 (stereo not drawn)",
    "target-of-assay": "HEK-293T",
    "class-name": "Not met"
  },
  {
    "molecule": "CC(C)c1noc(N2CCC(COc3ccc(-c4ccc(S(C)(=O)=O)cc4)nc3)CC2)n1 [GSK-1292263]",
    "target-of-assay": "HEK-293T",
    "class-name": "Not met"
  },
  {
    "molecule": "CCCOc1ccc2[nH]cc(C3=CCNCC3)c2n1.Cl",
    "target-of-assay": "HEK-293T",
    "class-name": "Not met"
  },
  {
    "molecule": "Cc1cnc(-c2cc(N3CCN(C(=O)CCS(C)(=O)=O)CC3)ncc2Cl)c(C)c1",
    "target-of-assay": "HEK-293T",
    "class-name": "Not met"
  },
  {
    "molecule": "Cl.NCCc1ccc(O)c(O)c1 [DOPAMINE HYDROCHLORIDE]",
    "target-of-assay": "HEK-293T",
    "class-name": "Met"
  },
  {
    "molecule": "CN(C)C(=O)Cn1cc(-c2ccc(-c3cncc4ccccc34)cc2)cn1",
    "target-of-assay": "HEK-293T",
    "class-name": "Met"
  },
  {
    "molecule": "CCCCC1=NC2(CCCC2)C(=O)N1Cc1ccc(-c2ccccc2-c2nnn[nH]2)cc1 [IRBESARTAN]",
    "target-of-assay": "HEK-293T",
    "class-name": "Met"
  },
  {
    "molecule": "Cc1sc2c(c1C)C(c1ccc(Cl)cc1)=N[C@@H](CC(=O)NCCCCCCCCNC(=O)COc1cccc3c1C(=O)N(C1CCC(=O)NC1=O)C3=O)c1nnc(C)n1-2 (stereo partly drawn)",
    "target-of-assay": "HEK-293T",
    "class-name": "Met"
  },
  {
    "molecule": "Cc1cccc(NC(=O)CN2CCC(c3ccccn3)CC2)c1.Cl.Cl",
    "target-of-assay": "HEK-293T",
    "class-name": "Not met"
  },
  {
    "molecule": "C[C@H](N)COC(=O)[C@@H](CCCCN)NC(=O)Cc1c(-c2ccc3ccccc3c2)[nH]c2c1ccc1ccccc12",
    "target-of-assay": "HEK-293T",
    "class-name": "Met"
  }
]

###

Listed next: entries and their corresponding Population Mitochondria Different-Phenotype (%).
Tested on: Fibroblast
Assay: Multiplex assay against human fibroblast
Assay type: toxicity, cell-based
Settings: 12 h, 1 µM, compound concentration 1 uM, replicate 2
readout-name: Population Mitochondria Different-Phenotype (%)

[
  {
    "compound": "Cc1cccc(NC(=O)CN2CCC(c3ccccn3)CC2)c1.Cl.Cl",
    "observed": 5
  },
  {
    "compound": "CC(C)COc1ccc(CNC(=O)N(Cc2ccc(F)cc2)C2CCN(C)CC2)cc1",
    "observed": 4
  },
  {
    "compound": "CCCCC1=NC2(CCCC2)C(=O)N1Cc1ccc(-c2ccccc2-c2nnn[nH]2)cc1",
    "observed": 2
  },
  {
    "compound": "COC[C@@H](c1ccc(C(F)(F)F)cc1)N1CCN(C2(C)CCN(C(=O)c3c(C)ncnc3C)CC2)C[C@@H]1C.O=C(O)/C=C\\C(=O)O [VICRIVIROC MALEATE]",
    "observed": 13
  },
  {
    "compound": "CCCCC(=O)N(Cc1ccc(-c2ccccc2-c2nnn[nH]2)cc1)[C@H](C(=O)O)C(C)C",
    "observed": 6
  },
  {
    "compound": "CC(C)(C)c1cc(NC(=O)Nc2ccc(-c3cn4c(n3)sc3cc(OCCN5CCOCC5)ccc34)cc2)no1",
    "observed": 5
  },
  {
    "compound": "Cc1onc(-c2ccccc2Cl)c1C(=O)N(C)c1ccc(Cl)cc1",
    "observed": 8
  },
  {
    "compound": "Cl.N=C(N)NC(=O)Cc1c(Cl)cccc1Cl [GUANFACINE HYDROCHLORIDE]",
    "observed": 7
  },
  {
    "compound": "O=C1[C@H](Cc2ccc(O)cc2)N2C(=O)CCN(C(=O)NCc3ccccc3)[C@H]2CN1Cc1cccc2ccccc12",
    "observed": 13
  },
  {
    "compound": "Br.CS(=O)(=O)Nc1c(O)ccc2c1CCCC2C1=NCCN1 (stereo unspecified)",
    "observed": 8
  },
  {
    "compound": "CN[C@@H](C)C(=O)N[C@H](C(=O)N1CCC[C@H]1C(=O)Nc1snnc1-c1ccccc1)C1CCCCC1",
    "observed": 9
  },
  {
    "compound": "CCc1cc2cc(NS(=O)(=O)c3ccc(C#N)cc3)ccc2n(CC)c1=O",
    "observed": 7
  },
  {
    "compound": "COc1ccccc1N1CCN(C[C@@H](C(=O)NC(C)(C)C)c2ccccc2)CC1.Cl.Cl",
    "observed": 4
  },
  {
    "compound": "CCCOc1ccc2[nH]cc(C3=CCNCC3)c2n1.Cl",
    "observed": 2
  },
  {
    "compound": "O=C(CCCc1ccccc1)Nc1nc2ccccc2c(=O)s1",
    "observed": 7
  },
  {
    "compound": "COc1cccc2c1c(NS(=O)(=O)c1ccc(Cl)s1)nn2Cc1cccc(CNC(=O)C(C)(C)O)c1",
    "observed": 1
  },
  {
    "compound": "Cc1cnc(-c2cc(N3CCN(C(=O)CCS(C)(=O)=O)CC3)ncc2Cl)c(C)c1",
    "observed": 10
  },
  {
    "compound": "CC(=O)Nc1cccc2c1c(Sc1ccc(Cl)cc1)c(C)n2CC(=O)O",
    "observed": 7
  },
  {
    "compound": "Cl.NCCc1ccc(O)c(O)c1 [DOPAMINE HYDROCHLORIDE]",
    "observed": 6
  },
  {
    "compound": "C[C@H](N)COC(=O)[C@@H](CCCCN)NC(=O)Cc1c(-c2ccc3ccccc3c2)[nH]c2c1ccc1ccccc12",
    "observed": 4
  },
  {
    "compound": "Cc1noc(-c2ccc(-c3ccc(CC(=O)O)cc3)cc2)c1NC(=O)O[C@H](C)c1ccccc1Cl",
    "observed": 2
  },
  {
    "compound": "N#Cc1cc(F)cc(-c2nc(-c3ccc(F)cn3)no2)c1",
    "observed": 6
  },
  {
    "compound": "CC(/C=C1\\SC(=S)N(CCCC(=O)Nc2ccc(C(=O)O)c(O)c2)C1=O)=C\\c1ccccc1",
    "observed": 9
  },
  {
    "compound": "CC(C)c1noc(N2CCC(COc3ccc(-c4ccc(S(C)(=O)=O)cc4)nc3)CC2)n1",
    "observed": 5
  },
  {
    "compound": "Cc1sc2c(c1C)C(c1ccc(Cl)cc1)=N[C@@H](CC(=O)NCCCCCCCCNC(=O)COc1cccc3c1C(=O)N(C1CCC(=O)NC1=O)C3=O)c1nnc(C)n1-2 (stereo partly specified)",
    "observed": 23
  },
  {
    "compound": "CN1CCN(c2cc(-c3ccccc3)nc(N)n2)CC1",
    "observed": 11
  },
  {
    "compound": "NCCc1cn(S(=O)(=O)c2c(Cl)nc3sccn23)c2ccccc12.O=C(O)C(=O)O",
    "observed": 8
  },
  {
    "compound": "O=C(NCCN1CCC(n2c(=O)[nH]c3cc(Cl)ccc32)CC1)c1ccc(F)cc1 [HALOPEMIDE]",
    "observed": 0
  },
  {
    "compound": "CCCCCC(O)/C=C/[C@H]1C(=O)CC(O)C1C/C=C\\CCCC(=O)O (stereo partly specified)",
    "observed": 20
  },
  {
    "compound": "CN(C)C(=O)Cn1cc(-c2ccc(-c3cncc4ccccc34)cc2)cn1",
    "observed": 2
  },
  {
    "compound": "Cc1c(CC(=O)O)c2cccnc2n1Cc1ccc(S(C)(=O)=O)cc1C(F)(F)F",
    "observed": 12
  }
]
